# protocol-summary: Compound toxicity, ATPLite total ATP levels
# Format: cell-based
# run-conditions: human, HepAD38 cells; 15,000 cells/well, three days after compound addition; 50% reduction of total ATP levels relative to no drug controls

smiles-input: O=S(=O)(c1cc(-c2nc(-c3ccc(Cl)c(Cl)c3)c[nH]2)ccc1Cl)N1CCC(O)CC1
CC50 at 3 days: 10 to 30 µM
--
smiles-input: O=S(=O)(c1cc(-c2ncc(-c3cccc(F)c3)[nH]2)ccc1Cl)N1CCC(O)CC1
CC50 at 3 days: 10 to 30 µM
--
smiles-input: O=S(=O)(c1cc(-c2nc3ccccc3[nH]2)ccc1Cl)N1CCC(O)CC1
CC50 at 3 days: 10 to 30 µM
--
smiles-input: O=S(=O)(c1cc(-c2ncc(-c3cccnc3)[nH]2)ccc1Cl)N1CCC(O)CC1
CC50 at 3 days: > 30 µM
--
smiles-input: O=S(=O)(c1cc(-c2nc(-c3ccc(Br)c(F)c3)c[nH]2)ccc1Cl)N1CCC(O)(CO)CC1
CC50 at 3 days: > 30 µM
--
smiles-input: O=S(=O)(c1cc(-c2nc(-c3ccc(C(F)(F)F)c(F)c3)c[nH]2)ccc1Cl)N1CCC(O)CC1
CC50 at 3 days: < 10 µM
--
smiles-input: O=S(=O)(c1cc(-c2nc(-c3ccc(Br)c(F)c3)c[nH]2)ccc1Cl)N1CCN(CCO)CC1
CC50 at 3 days: > 30 µM
--
smiles-input: O=S(=O)(c1cc(-c2nc(-c3cccc(C(F)(F)F)c3)c[nH]2)ccc1Cl)N1CCC(O)CC1
CC50 at 3 days: 10 to 30 µM

* * *

# protocol-summary: Compound toxicity, ATPLite total ATP levels
# Type: cell-based
# run-conditions: human, HepAD38 cells; 15,000 cells/well, three days after compound addition; 50% reduction of total ATP levels relative to no drug controls
Attribute: CC50 at 3 days
property: CC50 at 3 days

compound: O=S(=O)(c1cc(-c2nc(-c3ccc(Br)c(F)c3)c[nH]2)ccc1Cl)N1CCC(O)C1 (centres unmarked)
reported-result: < 10 µM

compound: O=S(=O)(c1cc(-c2ncc(-c3cccs3)[nH]2)ccc1Cl)N1CCC(O)CC1
reported-result: > 30 µM

compound: CN(C)S(=O)(=O)c1cc(-c2ncc(-c3ccc(F)c(Br)c3)[nH]2)ccc1Cl
reported-result: 10 to 30 µM

compound: O=C1CCN(S(=O)(=O)c2cc(-c3nc(-c4ccc(Br)c(F)c4)c[nH]3)ccc2Cl)CC1
reported-result: 10 to 30 µM

compound: O=S(=O)(NCCCO)c1cc(-c2nc(-c3ccc(Br)c(F)c3)c[nH]2)ccc1Cl
reported-result: > 30 µM

compound: O=S(=O)(c1cc(-c2nc(-c3cccc(Cl)c3)c[nH]2)ccc1Cl)N1CCC(O)CC1
reported-result: 10 to 30 µM

compound: CC(CO)NS(=O)(=O)c1cc(-c2nc(-c3ccc(Br)c(F)c3)c[nH]2)ccc1Cl (centres unmarked)
reported-result: > 30 µM

compound: O=S(=O)(NCCCO)c1cc(-c2ncc(-c3ccc(F)c(Br)c3)[nH]2)ccc1Cl
reported-result: 10 to 30 µM

* * *

# Test system: HBV
# protocol-summary: HepAD38 antiviral assay: reduction of viral product accumulation (virion DNA by qPCR, HBsAg or HBeAg by ELISA)
# Type: cell-based
# run-conditions: Hepatitis B virus, HePAD38, 120 h, read-out: HepAD38 EC50 (μM)

smiles-input: O=C(NCCCNS(=O)(=O)c1cc(-c2nc(-c3ccc(Br)c(F)c3)c[nH]2)ccc1Cl)Oc1ccccc1
EC50: < 1 µM

* * *

# protocol-summary: Compound toxicity, ATPLite total ATP levels
# Assay type: cell-based
# run-conditions: human, HepAD38 cells; 15,000 cells/well, three days after compound addition; 50% reduction of total ATP levels relative to no drug controls

compound: O=S(=O)(c1cc(-c2nc(-c3ccc(Cl)cc3)c[nH]2)ccc1Cl)N1CCC(O)CC1
CC50 at 3 days: 10 to 30 µM
--
compound: COC(=O)CN(C)S(=O)(=O)c1cc(-c2nc(-c3ccc(Br)c(F)c3)c[nH]2)ccc1Cl
CC50 at 3 days: > 30 µM
--
compound: CC(=O)OC1CCN(S(=O)(=O)c2cc(-c3nc(-c4ccc(F)c(Br)c4)c[nH]3)ccc2Cl)CC1
CC50 at 3 days: 10 to 30 µM
--
compound: CC(C)N(C)S(=O)(=O)c1cc(-c2nc(-c3ccc(Br)c(F)c3)c[nH]2)ccc1Cl
CC50 at 3 days: > 30 µM
--
compound: O=S(=O)(c1cc(-c2nc(-c3ccc(Br)c(Br)c3)c[nH]2)ccc1Cl)N1CCC(O)CC1
CC50 at 3 days: > 30 µM
--
compound: O=S(=O)(NCCO)c1cc(-c2nc(-c3ccc(Br)c(F)c3)c[nH]2)ccc1Cl
CC50 at 3 days: > 30 µM
--
compound: O=S(=O)(c1cc(-c2nc(-c3ccc(F)cc3)c[nH]2)ccc1Cl)N1CCC(O)CC1
CC50 at 3 days: > 30 µM
--
compound: O=S(=O)(c1cc(-c2nc(-c3ccc(Br)c(F)c3)c[nH]2)ccc1Cl)N1CCCC(O)C1 (centres unmarked)
CC50 at 3 days: > 30 µM

* * *

Attribute: CC50 at 3 days
# protocol-summary: Compound toxicity, ATPLite total ATP levels
# Format: cell-based
# run-conditions: human, HepAD38 cells; 15,000 cells/well, three days after compound addition; 50% reduction of total ATP levels relative to no drug controls
property: CC50 at 3 days

compound: CC(C)(C)OC(=O)NCCNS(=O)(=O)c1cc(-c2nc(-c3ccc(Br)c(F)c3)c[nH]2)ccc1Cl
property: CC50 at 3 days
reported-result: > 30 µM
//
compound: CC(CO)N(C)S(=O)(=O)c1cc(-c2nc(-c3ccc(Br)c(F)c3)c[nH]2)ccc1Cl (stereo not shown)
property: CC50 at 3 days
reported-result: < 10 µM
//
compound: O=S(=O)(c1cc(-c2ncc(-c3ccc(F)c(C4CC4)c3)[nH]2)ccc1Cl)N1CCC(O)CC1
property: CC50 at 3 days
reported-result: 10 to 30 µM
//
compound: COC(=O)[C@@H](NS(=O)(=O)c1cc(-c2ncc(-c3ccc(F)c(Br)c3)[nH]2)ccc1Cl)C(C)C
property: CC50 at 3 days
reported-result: 10 to 30 µM
//
compound: C#Cc1cc(-c2cc(-c3ccc(Cl)c(S(=O)(=O)N4CCC(O)CC4)c3)n[nH]2)ccc1F
property: CC50 at 3 days
reported-result: < 10 µM
//
compound: N#Cc1cc(-c2c[nH]c(-c3ccc(Cl)c(S(=O)(=O)N4CCC(O)CC4)c3)n2)ccc1Cl
property: CC50 at 3 days
reported-result: > 30 µM
//
compound: O=S(=O)(c1cc2nc(-c3ccccc3)[nH]c2cc1Cl)N1CCC(O)CC1
property: CC50 at 3 days
reported-result: < 10 µM
//
compound: CNCCNS(=O)(=O)c1cc(-c2nc(-c3ccc(Br)c(F)c3)c[nH]2)ccc1Cl
property: CC50 at 3 days
reported-result: > 30 µM
//
compound: O=S(=O)(c1cc2nc(-c3cc(F)c(F)c(F)c3)[nH]c2cc1Cl)N1CCC(O)CC1
property: CC50 at 3 days
reported-result: > 30 µM
//
compound: CC(C)(C)OC(=O)NCCCNS(=O)(=O)c1cc(-c2ncc(-c3ccc(F)c(Br)c3)[nH]2)ccc1Cl
property: CC50 at 3 days
reported-result: < 10 µM
//
compound: NCCCNS(=O)(=O)c1cc(-c2ncc(-c3ccc(F)c(Br)c3)[nH]2)ccc1Cl
property: CC50 at 3 days
reported-result: < 10 µM
//
compound: CC(C)NS(=O)(=O)c1cc(-c2nc(-c3ccc(Br)c(F)c3)c[nH]2)ccc1Cl
property: CC50 at 3 days
reported-result: < 10 µM
//
compound: COC(=O)NCC(C)NS(=O)(=O)c1cc(-c2nc(-c3ccc(Br)c(F)c3)c[nH]2)ccc1Cl (stereo not shown)
property: CC50 at 3 days
reported-result: < 10 µM
//
compound: O=S(=O)(c1cc(-c2nc(-c3cccc(OC(F)(F)F)c3)c[nH]2)ccc1Cl)N1CCC(O)CC1
property: CC50 at 3 days
reported-result: > 30 µM
//
compound: Cc1cc(-c2cc(-c3ccc(Cl)c(S(=O)(=O)N4CCC(O)CC4)c3)n[nH]2)ccc1F
property: CC50 at 3 days
reported-result: 10 to 30 µM
//
compound: CN(CCCO)S(=O)(=O)c1cc(-c2nc(-c3ccc(Br)c(F)c3)c[nH]2)ccc1Cl
property: CC50 at 3 days
reported-result: < 10 µM

* * *

Attribute: CC50 at 3 days
# protocol-summary: Compound toxicity, ATPLite total ATP levels
# Type: cell-based
# run-conditions: human, HepAD38 cells; 15,000 cells/well, three days after compound addition; 50% reduction of total ATP levels relative to no drug controls
property: CC50 at 3 days

compound: CC(C)(C)OC(=O)NCCCNS(=O)(=O)c1cc(-c2nc(-c3ccc(Br)c(F)c3)c[nH]2)ccc1Cl
reported-result: > 30 µM
//
compound: N#Cc1cc(-c2cnc(-c3ccc(Cl)c(S(=O)(=O)N4CCC(O)CC4)c3)[nH]2)ccc1F
reported-result: > 30 µM
//
compound: O=S(=O)(c1cc(-c2nc(-c3ccc(Cl)c(Br)c3)c[nH]2)ccc1Cl)N1CCC(O)CC1
reported-result: < 10 µM
//
compound: O=S(=O)(c1cc(-c2nc(-c3ccc(Br)c(F)c3)c[nH]2)ccc1Cl)N1CCCCC(O)C1 (stereo not shown)
reported-result: > 30 µM
//
compound: O=S(=O)(c1cc(-c2ncc(-c3ccc(F)c(F)c3)[nH]2)ccc1Cl)N1CCC(O)CC1
reported-result: > 30 µM
//
compound: O=S(=O)(NCCO)c1cc(-c2ncc(-c3ccc(F)c(Br)c3)[nH]2)ccc1Cl
reported-result: 10 to 30 µM
//
compound: O=S(=O)(c1cc(-c2nc(-c3cccc(Br)c3)c[nH]2)ccc1Cl)N1CCC(O)CC1
reported-result: > 30 µM
//
compound: COC(=O)C(C)NS(=O)(=O)c1cc(-c2nc(-c3ccc(Br)c(F)c3)c[nH]2)ccc1Cl (stereo not shown)
reported-result: > 30 µM
//
compound: CN1CCN(S(=O)(=O)c2cc(-c3nc(-c4ccc(Br)c(F)c4)c[nH]3)ccc2Cl)CC1
reported-result: > 30 µM
//
compound: COc1cc(-c2cnc(-c3ccc(Cl)c(S(=O)(=O)N4CCC(O)CC4)c3)[nH]2)ccc1F
reported-result: > 30 µM
//
compound: Cc1ccc(-c2c[nH]c(-c3ccc(Cl)c(S(=O)(=O)N4CCC(O)CC4)c3)n2)cc1F
reported-result: > 30 µM
//
compound: O=S(=O)(c1cc(-c2nc(-c3cc(F)c(Br)c(F)c3)c[nH]2)ccc1Cl)N1CCC(O)CC1
reported-result: > 30 µM
//
compound: Cc1cc(F)ccc1-c1c[nH]c(-c2ccc(Cl)c(S(=O)(=O)N3CCC(O)CC3)c2)n1
reported-result: 10 to 30 µM
